tested on: HCT-116; assay: NCI tumour cell line growth inhibition, 48 h
The source made the active and inactive calls. No stated cut-off is given here; in the data, active = GI50 up to about 1.1 µM and inactive = higher.
PROPERTY LABEL: GI50

Solved entries:
MOLECULE	ASSAYED TARGET	PROPERTY LABEL	DATA VALUE
CCCCCCCCCCCCCCCCCCOC(COP(=O)(O)OCC1OC(n2cc(F)c(=O)[nH]c2=O)CC1O)COP(=O)(O)OCC1OC(n2ccc(N)nc2=O)C(O)C1O (stereo not given)	HCT-116	GI50	6.19 µM (inactive)
CC(SC(=S)Nc1cccc(F)c1)C(=O)O (stereo not given)	HCT-116	GI50	19.2 µM (inactive)
O=C(C#Cc1ccccc1)C1=Cc2ccccc2OC1	HCT-116	GI50	1.92 µM (inactive)
COC(=O)C1ON2C(C1C(=O)OC)C(C)(C)N(O)C2(C)C (stereo not given)	HCT-116	GI50	> 10 µM (inactive)
C/C=C(/C)C(=O)O[C@H]1[C@H](O)CC(c2ccc3c(c2O)C(=O)C2=C(O)C4(OC)C(=O)C(C(N)=O)=C(O)[C@H](CC(=O)c5ccccc5O)C4CC2[C@@]3(C)OC)O[C@@H]1C (stereo not given in full)	HCT-116	GI50	0.00121 µM (active)

I would be grateful if you could provide GI50 for each of the following entries.
1. CC(=O)Oc1cc(S(=O)(=O)Nc2nc(N)n[nH]2)c(S)cc1Cl
2. Cc1cc(C)c2c(=O)n(CC(O)CN3CCN(CCOCCO)CC3)sc2n1 (stereo not given)
3. COc1ccc(OC)c(-c2nc(O)c3ccccc3n2)c1
4. O=C1CC2CC(CC3(CO3)C2)C1F (stereo not given)
5. OC1c2[nH]c3ccccc3c2CCN2CCCCC12 (stereo not given)

1: > 100 µM (inactive); 2: 17.1 µM (inactive); 3: > 100 µM (inactive); 4: > 100 µM (inactive); 5: > 100 µM (inactive)
